fold lower potency (IC50) toward AF9 YEATS than toward ENL YEATS for assorted binders
Target: T1, AF9 YEATS domain (human, UniProt P42568 1-138)
T1 chain: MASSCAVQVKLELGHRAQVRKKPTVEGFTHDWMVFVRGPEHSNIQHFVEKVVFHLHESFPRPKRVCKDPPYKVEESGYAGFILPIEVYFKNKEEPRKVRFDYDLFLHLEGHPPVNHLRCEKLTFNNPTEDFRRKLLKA
Test: AlphaScreen or HTRF; competition: AF9 YEATS and its corresponding acylated histone peptide; test peptide varied; n = 3
Where no end group is shown, it is not given here. The star is where a group is joined. Oxazole(5-CO) = O=C(c1cnco1)*; Crotonyl(E) = C/C=C/C(=O)*; 2Furoyl = O=C(c1ccco1)*; Butyryl = CCCC(=O)*
readout-name: fold lower potency (IC50) toward AF9 YEATS than toward ENL YEATS (fold)

# binder, measured-value
records = [
    ("YDVYCYK(Oxazole(5-CO)) [ENL-S1o]", 23),
    ("YDVYCYK(Crotonyl(E)) [ENL-S1c]", 18),
    ("YDVYCYK(2Furoyl) [ENL-S1f]", 7.7),
    ("YDVYCYK(Butyryl) [ENL-S1]", 4),
]
